Molecular target: human ether-à-go-go-related gene (hERG) potassium channel (human);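 further: peak tail current of the secondary pulse compared with the same well before compound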
Assay: primary screen, population patch clamp on CHO cells stably expressing hERG; higher = less effect of the substance
Procedure: Briefly, Chinese hamster ovary (CHO) cells stably expressing the hERG channel were dislodged from tissue culture flasks and dispensed into PPC plates. […] During the recording, background leak currents were estimated by a 100 ms step to -80 mV from an initial holding potential of -70 mV and subtracted from the subsequent current measurement. The campaign was conducted in two phases using slight differences in recording protocol. […]
In all, about 310,000 compounds went through this assay and about 14,000 (4.5%) showed an effect of 50% or more. Effects have a minus sign here. Many of the other results were omitted from the sample, so strong results are more common in it than they were.
MEASUREMENT_TYPE: hERG current change (%, negative = inhibition) at 10uM (%)
Report as a plain number; the unit % is understood.

Study these solved cases before continuing.
> print(dat)
                                   molecule  quantity.unit   value
1  Cc1ccc(C)c(S(=O)(=O)N2CCCC2CNC(=O)C(=O)NCc2ccco2)c1 (centres unmarked)              %   -54.2
2  Cc1ccc(S(=O)(=O)N2CCCC2CNC(=O)c2ccc(F)c(F)c2)cc1 (centres unmarked)              %   -52.5
3  Cc1ccc(C)c(S(=O)(=O)N2CCCC2CNC(=O)C(=O)NC2CC2)c1 (centres unmarked)              %  -0.659
4  Cc1ccc(S(=O)(=O)N2CCCC2CNC(=O)c2ccccc2)cc1 (centres unmarked)              %   -9.34

Value of hERG current change (%, negative = inhibition) at 10uM reported for the molecule "FC(F)(F)c1nc(-c2ccncc2)ncc1-c1nnnn1-c1ccccc1" is -0.18

----------
Target: human ether-à-go-go-related gene (hERG) potassium channel (human, UniProt Q12809);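 further: peak tail current of the secondary pulse compared with the same well before compound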
Sequence (Q12809 whole entry, looked up): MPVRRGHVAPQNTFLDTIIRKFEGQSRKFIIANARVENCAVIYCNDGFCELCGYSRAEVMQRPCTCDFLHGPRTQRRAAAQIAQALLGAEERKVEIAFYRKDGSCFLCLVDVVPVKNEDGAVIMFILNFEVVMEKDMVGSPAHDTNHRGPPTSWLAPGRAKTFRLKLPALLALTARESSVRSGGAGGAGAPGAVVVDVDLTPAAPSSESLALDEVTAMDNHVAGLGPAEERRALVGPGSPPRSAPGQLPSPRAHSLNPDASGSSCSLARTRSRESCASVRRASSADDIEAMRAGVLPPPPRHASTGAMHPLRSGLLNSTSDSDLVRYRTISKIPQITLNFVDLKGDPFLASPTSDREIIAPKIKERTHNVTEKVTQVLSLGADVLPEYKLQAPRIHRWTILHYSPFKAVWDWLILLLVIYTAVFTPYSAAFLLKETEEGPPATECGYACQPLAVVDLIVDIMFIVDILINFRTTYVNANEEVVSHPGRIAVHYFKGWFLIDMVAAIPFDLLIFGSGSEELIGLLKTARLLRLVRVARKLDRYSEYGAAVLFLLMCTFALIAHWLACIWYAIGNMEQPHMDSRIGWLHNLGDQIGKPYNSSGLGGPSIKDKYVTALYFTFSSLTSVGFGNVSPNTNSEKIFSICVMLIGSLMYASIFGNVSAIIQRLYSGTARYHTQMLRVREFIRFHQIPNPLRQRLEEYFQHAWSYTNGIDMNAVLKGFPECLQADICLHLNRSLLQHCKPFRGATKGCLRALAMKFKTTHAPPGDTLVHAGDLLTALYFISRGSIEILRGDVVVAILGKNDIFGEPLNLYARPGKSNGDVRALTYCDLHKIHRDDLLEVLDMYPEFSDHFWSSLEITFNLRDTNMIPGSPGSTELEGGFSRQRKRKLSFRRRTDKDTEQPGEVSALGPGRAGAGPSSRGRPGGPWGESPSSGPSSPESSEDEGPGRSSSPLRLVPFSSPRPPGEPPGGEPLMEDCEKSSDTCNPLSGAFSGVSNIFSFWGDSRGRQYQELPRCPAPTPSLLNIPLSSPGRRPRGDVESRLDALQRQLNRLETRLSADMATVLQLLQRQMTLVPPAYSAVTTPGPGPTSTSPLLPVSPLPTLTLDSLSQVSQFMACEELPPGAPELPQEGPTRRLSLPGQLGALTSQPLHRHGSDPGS
Assay: primary screen, population patch clamp on CHO cells stably expressing hERG; higher = less effect of the substance
The whole screen tested about 310,000 compounds, of which about 14,000 (4.5%) showed an effect of 50% or more. The effect is printed as a negative number. The entries come from a sample that favours strong results as a whole.
This listing pairs molecules with measured hERG current change (%, negative = inhibition) at 10uM.
Report as a plain number; the unit % is understood.

> print(dat)
                                   molecule  value
1  Cc1cc(C)cc(-n2ncc3c2CCCC3NC(=O)c2csnn2)c1 (centres unmarked)   -110

Value of hERG current change (%, negative = inhibition) at 10uM reported for the molecule "CC(=O)c1ccc(N2CCN(C(=O)c3ccc4ccccc4n3)CC2)cc1" is -43.1

Value of hERG current change (%, negative = inhibition) at 10uM reported for the molecule Cc1cc(C(=O)NC2CCCc3c2cnn3-c2ccc(C(C)(C)C)cc2)n[nH]1 (centres unmarked) is -5.84

Value of hERG current change (%, negative = inhibition) at 10uM reported for the molecule "CC(=O)c1ccc(N2CCN(C(=O)/C=C/c3ccc4ccccc4n3)CC2)cc1" is -54.4

Value of hERG current change (%, negative = inhibition) at 10uM reported for the molecule Cc1ccc(-n2ncc3c2CCCC3NC(=O)c2csnn2)cc1C (centres unmarked) is -33.2

----------
Molecular target: human ether-à-go-go-related gene (hERG) potassium channel (human);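 further: peak tail current of the secondary pulse compared with the same well before compound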
Experiment: primary screen, population patch clamp on CHO cells stably expressing hERG; higher = less effect of the substance
In all, about 310,000 compounds went through this assay and about 14,000 (4.5%) showed an effect of 50% or more. The effect is printed as a negative number. Many of the other results were omitted from the sample, so strong results are more common in it than they were.
MEASUREMENT_TYPE: hERG current change (%, negative = inhibition) at 10uM (%)
Report as a plain number; the unit % is understood.

> print(dat)
                                   compound                                    target  value
1    CCN1CCN(Cc2cc(=O)oc3cc4c(cc23)CCC4)CC1  human ether-à-go-go-related gene (hERG) potassium channel (human)  -29.7
2  Cc1cc2oc(=O)cc(CN3CCN(Cc4ccccc4)CC3)c2cc1O  human ether-à-go-go-related gene (hERG) potassium channel (human)  -53.3
3   COc1ccc(C(=O)Nc2ccc(NC(=O)C(C)C)nc2)cc1  human ether-à-go-go-related gene (hERG) potassium channel (human)   18.9

Continue with the compound presented below.
Value of hERG current change (%, negative = inhibition) at 10uM reported for the compound "Cc1ccc2oc(=O)cc(CN3CCOCC3)c2c1" is -8.53
